- Read-out: HGF (gene 3082)
- protocol: LTEA_HepaRG_HGF: Life Technologies and Expression Analysis (LTEA) Assay for Hepatocyte Growth Facto (HGF) using HepaRG (AID 2283505)
- test.context: mRNA level, 48 h; actives raise or lower the signal
Active and inactive are the calls of the source. Rule for the calls: active = hit-call score of the fitted dose curve at least 0.9, where 1 is the maximum; inactive = score below 0.9.
Outcome (select one): active, inactive

Ask: Can you look up the reported call for "CCCCSP(=O)(SCCCC)SCCCC" for me?
Result: inactive

Ask: In this assay, the call recorded for "CC(C)[C@H](C(=O)O[C@H](C#N)c1cccc(Oc2ccccc2)c1)c1ccc(Cl)cc1" was what?
Result: inactive

----------
- Read-out: HMG-CoA synthase (HMGCS2), HMGCS2 (gene 3158)
- protocol: CLD_HMGCS2_48hr: CellzDirect (CLD) Gene Expression Assay for HMG-CoA synthase (HMGCS2) at 48 hours (AID 2283711)
Inconclusive results are not listed. Activity calls are given as the source filed them. The calls were made as follows: active = hit-call score of the fitted dose curve at least 0.9, where 1 is the maximum; inconclusive = response in the unintended direction; inactive = score below 0.9.
Thanks in advance; please answer with one of these: active, inactive

Would you please look over these solved cases?
CN1COCN(Cc2cnc(Cl)s2)C1=N[N+](=O)[O-]; inactive
CC(=NC#N)N(C)Cc1ccc(Cl)nc1; inactive
C=C(C)[C@H]1Cc2c(ccc3c2O[C@@H]2COc4cc(OC)c(OC)cc4[C@@H]2C3=O)O1; inactive
CN(C)C(=O)Nc1cccc(C(F)(F)F)c1; inactive
CC1=NNC(=O)N(/N=C/c2cccnc2)C1; inactive

Ask: So what was the verdict on "CN(C)[C@@H]1C(=O)C(C(N)=O)=C(O)[C@@]2(O)C(=O)C3=C(O)c4c(O)cccc4[C@@](C)(O)[C@H]3[C@H](O)[C@@H]12" in this test?
Result: active

Ask: Short answer needed: outcome of this test for "CNC(=O)ON=C(SC)C(=O)N(C)C" ?
Result: inactive

Ask: What was the test verdict on CCc1cnc(C2=NC(C)(C(C)C)C(=O)N2)c(C(=O)O)c1 (stereo unspecified) ?
Result: inactive

Ask: Write down the call the test reported for this compound. Item: COP(=O)(NC(C)=O)SC (stereo unspecified)
Result: inactive

Ask: Please indicate how the test categorized "CCCCN(CC)c1c([N+](=O)[O-])cc(C(F)(F)F)cc1[N+](=O)[O-]" .
Result: inactive

Ask: Assay result, entry "CCCCSP(=O)(SCCCC)SCCCC" — outcome?
Result: inactive

----------
- Read-out: Early growth response protein 1 (EGR1) transcription factor, EGR1 (gene 1958)
- protocol: LTEA_HepaRG_EGR1: Life Technologies and Expression Analysis (LTEA) Assay for Early growth response protein 1 (EGR1) transcription factor using HepaRG (AID 2283490)
- test.context: mRNA level, 48 h; actives raise or lower the signal
Activity calls are given as the source filed them. How the source made its calls: active means hit-call score of the fitted dose curve at least 0.9, where 1 is the maximum; inactive means score below 0.9.
Give your call using only these classes: True (active), False (inactive)

CCOP(=S)(OCC)OC(Cl)C(Cl)(Cl)Cl (centres undefined); False

Ask: Please share the test call associated with "CC(C)N(C(=O)SCC(Cl)=C(Cl)Cl)C(C)C" .
Result: False

Ask: Dear colleague, could you share the recorded outcome for CCc1cccc(C)c1N(C(=O)CCl)C(C)COC (centres undefined) when you have a moment?
Result: False

Ask: // return assay outcome for "CNc1cnn(-c2cccc(C(F)(F)F)c2)c(=O)c1Cl"
Result: False

Ask: # lookup: test call for "C=C(C)[C@H]1Cc2c(ccc3c2O[C@@H]2COc4cc(OC)c(OC)cc4[C@@H]2C3=O)O1"
Result: True

Ask: Given "Cc1ccn2nc(S(=O)(=O)Nc3c(F)cccc3F)nc2n1" , state the outcome it received in this test.
Result: False

Ask: Tell me the assay call for CCOP(=O)(NC(C)C)Oc1ccc(SC)c(C)c1 (centres undefined) please.
Result: False

Ask: // param item: "CCCOc1nn(C(=O)NS(=O)(=O)c2ccccc2C(=O)OC)c(=O)n1C" ; yields the recorded call
Result: False

----------
- target.entity: Estrogen receptor (Homo sapiens) (UniProt P03372)
- Sequence (P03372 whole entry, looked up): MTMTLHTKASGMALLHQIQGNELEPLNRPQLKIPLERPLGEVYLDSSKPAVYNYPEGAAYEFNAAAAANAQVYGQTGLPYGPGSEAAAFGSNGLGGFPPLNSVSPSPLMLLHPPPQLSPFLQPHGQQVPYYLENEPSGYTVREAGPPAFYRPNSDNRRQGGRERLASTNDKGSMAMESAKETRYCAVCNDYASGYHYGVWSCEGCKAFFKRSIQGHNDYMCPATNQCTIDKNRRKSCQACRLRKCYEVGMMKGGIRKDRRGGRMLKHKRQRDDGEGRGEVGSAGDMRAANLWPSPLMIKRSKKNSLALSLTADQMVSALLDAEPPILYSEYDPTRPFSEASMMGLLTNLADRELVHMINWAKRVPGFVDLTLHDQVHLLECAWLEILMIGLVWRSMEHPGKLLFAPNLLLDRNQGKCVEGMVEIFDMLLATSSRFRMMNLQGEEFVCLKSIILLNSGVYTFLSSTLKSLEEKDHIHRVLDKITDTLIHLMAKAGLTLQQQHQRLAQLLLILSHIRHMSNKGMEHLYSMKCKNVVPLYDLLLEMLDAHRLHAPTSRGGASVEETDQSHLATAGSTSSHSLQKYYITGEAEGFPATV
- protocol: OT_ERa_GFPERaERE_0480: Odyssey Thera (OT) 8-hour HeLa Transcription Induction Assay for Estrogen Receptor (AID 2283381)
Calls of active or inactive are those of the source. Rule for the calls: active = hit-call score of the fitted dose curve at least 0.9, where 1 is the maximum; inactive = score below 0.9.
Entry note: the call must match one of yes (1) for active, no (0) for inactive

Known results for compounds:
O=[N+]([O-])c1cc(C(F)(F)F)c(Cl)c([N+](=O)[O-])c1Nc1ncc(C(F)(F)F)cc1Cl; yes (1)
CSc1nc(NC(C)C)nc(NC(C)C)n1; no (0)
CC[C@H](C)[C@H]1O[C@]2(C=C[C@@H]1C)C[C@@H]1C[C@@H](C/C=C(\C)[C@@H](O[C@H]3C[C@H](OC)[C@@H](O[C@H]4C[C@H](OC)[C@@H](NC)[C@H](C)O4)[C@H](C)O3)[C@@H](C)/C=C/C=C3\CO[C@@H]4[C@H](O)C(C)=C[C@@H](C(=O)O1)[C@]34O)O2; yes (1)
Cc1cc(C2CC2)nc(Nc2ccccc2)n1; no (0)

Ask: What outcome does the record of this test show for "CCCCOC(=O)[C@@H](C)Oc1ccc(Oc2ccc(C#N)cc2F)cc1" ?
Result: no (0)

----------
- Read-out: sulfotransferase (SULT2A), SULT2A1 (gene 6822)
- protocol: CLD_SULT2A_48hr: CellzDirect (CLD) Gene Expression Assay for sulfotransferase (SULT2A) at 48 hours (AID 2283710);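 note: hits raise SULT2A1 transcript above the 0.2% DMSO vehicle baseline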
Records with an inconclusive call do not appear. Active and inactive are the calls of the source. The calls were made as follows: active = hit-call score of the fitted dose curve at least 0.9, where 1 is the maximum; inconclusive = response in the unintended direction; inactive = score below 0.9.
Return exactly one item of t = active, f = inactive

Reference set (5 entries):
CN(C)NC(=O)CCC(=O)O; f
CCCSP(=O)(OCC)Oc1ccc(Br)cc1Cl (centres undefined); f
CC(=NC#N)N(C)Cc1ccc(Cl)nc1; f
CCCCSP(=O)(SCCCC)SCCCC; t
CN(C)[C@@H]1C(=O)C(C(N)=O)=C(O)[C@@]2(O)C(=O)C3=C(O)c4c(O)cccc4[C@@](C)(O)[C@H]3[C@H](O)[C@@H]12; f

Ask: Please state the recorded outcome for this molecule: "CCOP(=S)(OCC)Oc1ccc([N+](=O)[O-])cc1"
Result: t

----------
- Read-out: Cyclin Dependent Kinase Inhibitor 1A (CDKN1A), CDKN1A (gene 1026)
- protocol: LTEA_HepaRG_CDKN1A: Life Technologies and Expression Analysis (LTEA) Assay for Cyclin Dependent Kinase Inhibitor 1A (CDKN1A) using HepaRG (AID 2283450)
- test.context: mRNA level, 48 h; actives raise or lower the signal
Activity calls are given as the source filed them. The calls were made as follows: active = hit-call score of the fitted dose curve at least 0.9, where 1 is the maximum; inactive = score below 0.9.
Lab note: assign the record to one of active, inactive

Ask: What was the test verdict on "N#CSCSC#N" ?
Result: inactive

----------
- Read-out: Insulin-like growth factor-binding protein 1 (IGFBP1), IGFBP1 (gene 3484)
- protocol: LTEA_HepaRG_IGFBP1: Life Technologies and Expression Analysis (LTEA) Assay for Insulin-like growth factor-binding protein 1 (IGFBP1) using HepaRG (AID 2283508)
- test.context: mRNA level, 48 h; actives raise or lower the signal
Calls of active or inactive are those of the source. Rule for the calls: active = hit-call score of the fitted dose curve at least 0.9, where 1 is the maximum; inactive = score below 0.9.
// allowed return values: Y for active, N for inactive

Here's what some known entries look like.
COP(=O)(OC)C(O)C(Cl)(Cl)Cl (configuration not stated); N
CCOP(=S)(OCC)Oc1ccc([N+](=O)[O-])cc1; N
CC(Oc1cccc(Cl)c1)C(=O)O (configuration not stated); N
Cc1ccn2nc(S(=O)(=O)Nc3c(F)cccc3F)nc2n1; N
C#CC(C)(C)NC(=O)c1cc(Cl)cc(Cl)c1; N
COc1cc(OC)nc(Sc2cccc(Cl)c2C(=O)O)n1; N
C[N+]1(C)CCCCC1; N
CCOC(=O)CC(SP(=O)(OC)OC)C(=O)OCC (configuration not stated); N
CCOC(=O)COc1cc(-c2nn(C)c(OC(F)F)c2Cl)c(F)cc1Cl; N
CCOP(=O)(OCC)Oc1cc(C)nc(C(C)C)n1; N

Ask: Answer briefly: the call reported for CC(C1CC1)C(O)(Cn1cncn1)c1ccc(Cl)cc1 (configuration not stated) in this assay.
Result: N

Ask: What did this assay record as the result for "C=C(C)[C@H]1Cc2c(ccc3c2O[C@@H]2COc4cc(OC)c(OC)cc4[C@@H]2C3=O)O1" ?
Result: Y

----------
- Read-out: ABC Transporter (ABCB11), ABCB11 (gene 8647)
- protocol: CLD_ABCB11_24hr: CellzDirect (CLD) Gene Expression Assay for ABC Transporter (ABCB11) at 24 hours (AID 2283674)
Records with an inconclusive call do not appear. Activity calls are given as the source filed them. Rule for the calls: active = hit-call score of the fitted dose curve at least 0.9, where 1 is the maximum; inactive = score below 0.9.
I would appreciate it if you answered using one of these outcomes: T for active, F for inactive

// below: answered compounds
CCOC(=O)CC(SP(=O)(OC)OC)C(=O)OCC (stereo unspecified); F
COP(=O)(OC)C(O)C(Cl)(Cl)Cl (stereo unspecified); F
CC[C@H](C)[C@H]1O[C@]2(C=C[C@@H]1C)C[C@@H]1C[C@@H](C/C=C(\C)[C@@H](O[C@H]3C[C@H](OC)[C@@H](O[C@H]4C[C@H](OC)[C@@H](NC)[C@H](C)O4)[C@H](C)O3)[C@@H](C)/C=C/C=C3\CO[C@@H]4[C@H](O)C(C)=C[C@@H](C(=O)O1)[C@]34O)O2; T
CCOP(=S)(OCC)Oc1ccc2c(C)c(Cl)c(=O)oc2c1; F
Cc1nn(-c2cc(NS(C)(=O)=O)c(Cl)cc2Cl)c(=O)n1C(F)F; F

Ask: # lookup: test call for "CN(C)NC(=O)CCC(=O)O"
Result: F

Ask: Field: outcome | Entry: "COc1cc(OC)nc(Sc2cccc(Cl)c2C(=O)O)n1"
Result: F
